Target: Mu-type opioid receptor (Homo sapiens)
Sequence (P35372 whole entry): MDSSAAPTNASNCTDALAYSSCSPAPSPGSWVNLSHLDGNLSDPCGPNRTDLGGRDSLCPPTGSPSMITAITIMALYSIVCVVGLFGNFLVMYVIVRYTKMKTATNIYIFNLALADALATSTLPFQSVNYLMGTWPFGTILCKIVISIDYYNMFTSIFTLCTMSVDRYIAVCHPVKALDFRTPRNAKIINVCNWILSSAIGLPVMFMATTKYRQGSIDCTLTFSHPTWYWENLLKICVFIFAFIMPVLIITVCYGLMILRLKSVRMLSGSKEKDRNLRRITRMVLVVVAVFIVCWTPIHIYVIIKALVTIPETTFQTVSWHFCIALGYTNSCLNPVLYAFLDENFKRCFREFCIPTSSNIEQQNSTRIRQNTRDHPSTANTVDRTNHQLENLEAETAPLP
Assay: Inhibition of [3H]-DAMGO binding to recombinant human Opioid receptor mu 1
Measurement label: Ki
Note: a bare number is incomplete; add the unit.

COC1[C@H](NC(=O)CC2OC(CO)C(O)C(O)C2O)C=C[C@H]2[C@H]3Cc4ccc(O)cc4[C@@]12CCN3C (some centres undefined) [DEPROTECTED COGENER OF M6G] | 3.5 nM
COC1[C@H](SC2OC(C(=O)O)C(O)C(O)C2O)C=C[C@H]2[C@H]3Cc4ccc(O)cc4[C@@]12CCN3C (some centres undefined) | 8.7 nM
COC1[C@H](NC(=O)CC2OC(COCc3ccccc3)C(OCc3ccccc3)C(OCc3ccccc3)C2OCc2ccccc2)C=C[C@H]2[C@H]3Cc4ccc(O)cc4[C@@]12CCN3C (some centres undefined) | 0.5 nM

Shifting focus to the compound that follows.
Measured Ki of CN1CC[C@]23c4c5ccc(O)c4O[C@H]2[C@@H](O[C@@H]2O[C@H](C(=O)O)[C@@H](O)[C@H](O)[C@H]2O)C=C[C@H]3[C@H]1C5 [MORPHINE GLUCURONIDE] : 12.9 nM

* * *

Test: Half life in monkey liver microsomes
Assay type: ADME, Microsome
Conditions: cercopithecidae
Measurement label: half-life (h)
Enter your answer as a number in h; do not include the unit.

COC1[C@H](NC(=O)CC2OC(COCc3ccccc3)C(OCc3ccccc3)C(OCc3ccccc3)C2OCc2ccccc2)CC[C@H]2[C@H]3Cc4ccc(O)cc4[C@@]12CCN3C (some centres not stated) | 1.5

Measured half-life of COC1[C@H](NC(=O)CC2OC(COCc3ccccc3)C(OCc3ccccc3)C(OCc3ccccc3)C2OCc2ccccc2)C=C[C@H]2[C@H]3Cc4ccc(O)cc4[C@@]12CCN3C (some centres not stated) : 0.512

* * *

Test: Stimulation of [35S]GTPcS binding against recombinant human opioid receptor mu 1
Format: functional
Measurement label: pEC50
Just the number, please; pEC50 means minus log10 of the concentration in mol/L.

A selection of reference data follows.
COC1[C@H](NC(=O)CC2OC(CO)C(O)C(O)C2O)C=C[C@H]2[C@H]3Cc4ccc(O)cc4[C@@]12CCN3C (stereo not given in full) [DEPROTECTED COGENER OF M6G] | 7.43
COC1[C@H](SC2OC(CO)C(O)C(O)C2O)C=C[C@H]2[C@H]3Cc4ccc(O)cc4[C@@]12CCN3C (stereo not given in full) | 7.04
COC1[C@H](SC2OC(C(=O)O)C(O)C(O)C2O)C=C[C@H]2[C@H]3Cc4ccc(O)cc4[C@@]12CCN3C (stereo not given in full) | 7.04
COC1[C@H](NC(=O)CC2OC(COCc3ccccc3)C(OCc3ccccc3)C(OCc3ccccc3)C2OCc2ccccc2)C=C[C@H]2[C@H]3Cc4ccc(O)cc4[C@@]12CCN3C (stereo not given in full) | 6.21

Shifting focus to the compound that follows.
Measured pEC50 of CN1CC[C@]23c4c5ccc(O)c4O[C@H]2[C@@H](O[C@@H]2O[C@H](C(=O)O)[C@@H](O)[C@H](O)[C@H]2O)C=C[C@H]3[C@H]1C5 [MORPHINE GLUCURONIDE] : 7.14

* * *

List of Ki values.
Assay: Inhibition of [3H]U-69593 binding to recombinant human Opioid receptor kappa 1
Enter your answer as a number in nM; do not include the unit.

Measured Ki of COC1[C@H](SC2OC(CO)C(O)C(O)C2O)C=C[C@H]2[C@H]3Cc4ccc(O)cc4[C@@]12CCN3C (some centres undefined) : 136

* * *

List of Ki values.
Experiment: Inhibition of [3H]DPDPE binding to recombinant human Opioid receptor delta 1
Enter your answer as a number in nM; do not include the unit.

A selection of reference data follows.
COC1[C@H](NC(=O)CC2OC(COCc3ccccc3)C(OCc3ccccc3)C(OCc3ccccc3)C2OCc2ccccc2)C=C[C@H]2[C@H]3Cc4ccc(O)cc4[C@@]12CCN3C (stereo not given in full) | 7.2
COC1[C@H](SC2OC(C(=O)O)C(O)C(O)C2O)C=C[C@H]2[C@H]3Cc4ccc(O)cc4[C@@]12CCN3C (stereo not given in full) | 31.4
COC1[C@H](NC(=O)CC2OC(CO)C(O)C(O)C2O)C=C[C@H]2[C@H]3Cc4ccc(O)cc4[C@@]12CCN3C (stereo not given in full) [DEPROTECTED COGENER OF M6G] | 266
COC1[C@H](SC2OC(CO)C(O)C(O)C2O)C=C[C@H]2[C@H]3Cc4ccc(O)cc4[C@@]12CCN3C (stereo not given in full) | 56.2

Shifting focus to the compound that follows.
Measured Ki of CN1CC[C@]23c4c5ccc(O)c4O[C@H]2[C@@H](O[C@@H]2O[C@H](C(=O)O)[C@@H](O)[C@H](O)[C@H]2O)C=C[C@H]3[C@H]1C5 [MORPHINE GLUCURONIDE] : 170

* * *

List of pKi values.
Assay: Inhibition of [3H]U-69593 binding to recombinant human Opioid receptor kappa 1
Just the number, please; pKi means minus log10 of the concentration in mol/L.

COC1[C@H](NC(=O)CC2OC(COCc3ccccc3)C(OCc3ccccc3)C(OCc3ccccc3)C2OCc2ccccc2)C=C[C@H]2[C@H]3Cc4ccc(O)cc4[C@@]12CCN3C (stereo partly drawn) | 7.80
CN1CC[C@]23c4c5ccc(O)c4O[C@H]2[C@@H](O[C@@H]2O[C@H](C(=O)O)[C@@H](O)[C@H](O)[C@H]2O)C=C[C@H]3[C@H]1C5 [MORPHINE GLUCURONIDE] | 5.39

Shifting focus to the molecule that follows.
Measured pKi of COC1[C@H](SC2OC(C(=O)O)C(O)C(O)C2O)C=C[C@H]2[C@H]3Cc4ccc(O)cc4[C@@]12CCN3C (stereo partly drawn) : 6.54
